Biological target: Ghrelin receptor (Homo sapiens)
Sequence (Q92847 whole entry): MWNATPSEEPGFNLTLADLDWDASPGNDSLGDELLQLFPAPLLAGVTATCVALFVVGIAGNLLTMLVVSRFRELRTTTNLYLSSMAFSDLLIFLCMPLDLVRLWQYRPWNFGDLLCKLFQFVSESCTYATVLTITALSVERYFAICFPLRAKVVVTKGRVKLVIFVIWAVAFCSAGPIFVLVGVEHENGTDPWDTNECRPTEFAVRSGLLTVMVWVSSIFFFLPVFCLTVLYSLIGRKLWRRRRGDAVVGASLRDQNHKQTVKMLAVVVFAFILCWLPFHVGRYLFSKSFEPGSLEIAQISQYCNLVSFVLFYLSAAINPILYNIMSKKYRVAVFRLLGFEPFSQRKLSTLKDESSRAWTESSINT
Test: Receptor Selection and Amplification Technology (R-SAT) assay
Format: cell-based
Design: expressed in transfected cells; host or cells: NIH3T3
Settings: percent inhibition at saturating ligand, normalized to reference ligand Substance P analog = 100%; read-out: RSAT Eff(%)
endpoint: Emax (%)
All answers are understood in %, so give the number only.

Here's what some known entries look like.
In [3]: df
Out[3]:
                                   compound  endpoint  unit_info  result
0  COc1cccc2c(C(C)=O)cn(CCCN3CCN(c4ccc(F)cc4)CC3)c12      Emax          %      95
1  CC(=O)c1c(C)n(CCCN2C3CCC2CC(Oc2ccc(F)cc2)C3)c2c(Br)cccc12 (stereo not shown)      Emax          %       1
2  COc1ccc2c(C(C)=O)cn(CCCN3C4CCC3CC(OC3=CC=C(Cl)CC3)C4)c2c1 (stereo not shown)      Emax          %     108
3  COc1ccccc1C1CCN(CCCn2cc(C(=O)C(F)(F)F)c3ccccc32)CC1      Emax          %      82

Shift focus to the following entry.
Look up Emax of COC(=O)c1cn(CCCN2CCC(Oc3ccc(F)cc3)CC2)c2ccccc12 and report it. 87
